target: C-CBL (46-435) (Homo sapiens); construct: N-terminal biotinylated WT CBL-B (36-427) and C-CBL (46-435) were captured on a streptavidin (SA) coated sensor chip; assay: Surface Plasmon Resonance (SPR) assay, binding affinity and kinetics, C-CBL; conditions: SPR at 10° C., biotinylated C-CBL (46-435) on streptavidin chip; geometric mean; read-out: C-CBL SPR Kd (nM) GMean
measured-metric: Kd (nM)
// return numeric value only (unit: nM, not printed)

The examples below pair each entry with its known result.
[
  {
    "compound": "CCNCc1nc(C(F)(F)F)cc2c(-c3cccc([C@H](c4nncn4C)C4CCC4)c3)n[nH]c12 [Example D81]",
    "Kd [nM]": 206
  },
  {
    "compound": "CC(C)NC(C)c1nc(C(F)(F)F)cc2c(-c3cccc([C@H](c4nncn4C)C4CCC4)c3)n[nH]c12 (single isomer, unassigned) [Example C34]",
    "Kd [nM]": 172
  },
  {
    "compound": "Cn1cnnc1CC1(c2cccc(-c3n[nH]c4c(OCCN)nc(C(F)(F)F)cc34)c2)COC1 [Example J3]",
    "Kd [nM]": 53.6
  },
  {
    "compound": "CC(C)NCc1nc(C(F)(F)F)cc2c(-c3cccc([C@H](c4nncn4C)C4CCC4)c3)n[nH]c12 [Example D80]",
    "Kd [nM]": 306
  }
]

Input Cc1nccc2c(-c3cccc([C@H](c4nncn4C)C4CCC4)c3)n[nH]c12 [Example A7] . Output Kd: 1300

Input Cn1cnnc1CC1(c2cccc(-c3n[nH]c4c(CN[C@@H]5CCOC5)nc(C(F)(F)F)cc34)c2)COC1 [Example C59] . Output Kd: 230

Input CC(NC1CNC1)c1nc(C(F)(F)F)cc2c(-c3cccc(C4(Cc5nncn5C)COC4)c3)n[nH]c12 (single isomer, unassigned) [Example C28] . Output Kd: 125

----------
Measured Kd accompanies every entry in the list below.
molecular target: WT CBL-B (36-427) (Homo sapiens); construct: N-terminal biotinylated WT CBL-B (36-427) and C-CBL (46-435) were captured on a streptavidin (SA) coated sensor chip; test: Surface Plasmon Resonance (SPR) assay, binding affinity and kinetics, CBL-B; conditions: SPR at 10° C., biotinylated WT CBL-B (36-427) on streptavidin chip; geometric mean; read-out: CBL-B SPR Kd (nM) GMean
// return numeric value only (unit: nM, not printed)

[
  {
    "compound": "CC1CN(Cc2nc(C(F)(F)F)cc3c(-c4cccc(C5(Cc6nncn6C)COC5)c4)n[nH]c23)CCC1(F)F (single isomer, unassigned) [Example C31]",
    "Kd [nM]": 4.7
  },
  {
    "compound": "Cn1cnnc1CC1(c2cccc(-c3n[nH]c4c(CN5C[C@@H](F)[C@@H](F)C5)nc(C(F)(F)F)cc34)c2)COC1",
    "Kd [nM]": 4.4
  },
  {
    "compound": "Cn1cnnc1[C@@H](c1cccc(-c2n[nH]c3c(CN[C@H]4C[C@@H](O)C4)nc(C(F)(F)F)cc23)c1)C1CCC1",
    "Kd [nM]": 11.1
  },
  {
    "compound": "C[C@@H](CO)c1nc(C(F)(F)F)cc2c(-c3cccc([C@H](c4nncn4C)C4CCC4)c3)n[nH]c12 (single isomer, unassigned)",
    "Kd [nM]": 8.3
  },
  {
    "compound": "CCNC(C)c1nc(C(F)(F)F)cc2c(-c3cccc(C4(Cc5nncn5C)COC4)c3)n[nH]c12 (single isomer, unassigned) [Example C83]",
    "Kd [nM]": 12.4
  }
]

Input "Cn1cnnc1CC1(c2cccc(-c3n[nH]c4c(CNC5CCCC5)nc(C(F)(F)F)cc34)c2)COC1" . Output Kd: 4.5

Input C[C@@H](N[C@H]1C[C@@H](O)C1)c1nc(C(F)(F)F)cc2c(-c3cccc([C@H](c4nncn4C)C4CCC4)c3)n[nH]c12 (single isomer, unassigned) . Output Kd: 3.3

Input C[C@@H]1CN([C@@H](C)c2nc(C(F)(F)F)cc3c(-c4cccc(C5(Cc6nncn6C)COC5)c4)n[nH]c23)CCO1 (single isomer, unassigned) . Output Kd: 5.9

Input CC(=O)NCC(C)c1nc(C(F)(F)F)cc2c(-c3cccc([C@H](c4nncn4C)C4CCC4)c3)n[nH]c12 (single isomer, unassigned) [Example M5] . Output Kd: 14.2

Input "CN1CC[C@H](Oc2nc(C(F)(F)F)cc3c(-c4cccc(C5(Cc6nncn6C)COC5)c4)n[nH]c23)C1" . Output Kd: 4.3

Input CCNC(C)c1nc(C(F)(F)F)cc2c(-c3cccc([C@H](c4nncn4C)C4CCC4)c3)n[nH]c12 (single isomer, unassigned) [Example C90] . Output Kd: 5.1

Input "Cn1cnnc1CC1(c2cccc(-c3n[nH]c4c(CN5CCCC5)nc(C(F)(F)F)cc34)c2)COC1" . Output Kd: 8.6

Input "Cn1cnnc1CC1(c2cccc(-c3n[nH]c4c(CNC5CC(F)(F)C5)nc(C(F)(F)F)cc34)c2)COC1" . Output Kd: 10

----------
Target: C-CBL (residues 46-435) (Homo sapiens)
Construct: Purified CBL-B (residues 36-427) and C-CBL (residues 46-435) proteins from baculovirus-infected insect cells; made in house; host or cells: baculovirus-infected insect cells
Sequence (P22681 46-435): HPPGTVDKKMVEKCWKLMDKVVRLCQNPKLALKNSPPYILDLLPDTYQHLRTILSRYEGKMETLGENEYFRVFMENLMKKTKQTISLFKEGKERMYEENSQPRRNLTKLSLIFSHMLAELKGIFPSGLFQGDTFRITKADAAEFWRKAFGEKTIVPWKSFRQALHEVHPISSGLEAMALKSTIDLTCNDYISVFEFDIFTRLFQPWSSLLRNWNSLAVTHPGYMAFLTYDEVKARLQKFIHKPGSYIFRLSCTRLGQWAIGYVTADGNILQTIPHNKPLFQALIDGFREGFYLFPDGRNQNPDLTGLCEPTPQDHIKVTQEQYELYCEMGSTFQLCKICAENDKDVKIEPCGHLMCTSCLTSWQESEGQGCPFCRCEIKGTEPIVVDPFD
Experiment: Ligand Displacement Assay (LDA), HTRF competitive binding against BODIPY-labeled fluorescent tracer, C-CBL
Settings: geometric mean of the number of tests, read-out: C-CBL Ki (nM) GMean
measured-metric: Ki (nM)
// return numeric value only (unit: nM, not printed)

[
  {
    "compound": "CC(NCCO)c1nc(C(F)(F)F)cc2c(-c3cccc([C@H](c4nncn4C)C4CCC4)c3)n[nH]c12 (single isomer, unassigned) [Example C42]",
    "unit-symbol": "nM",
    "Ki": 28.2
  },
  {
    "compound": "CC(O)c1nc(C(F)(F)F)cc2c(-c3cccc(C4(Cc5nncn5C)COC4)c3)n[nH]c12 (single isomer, unassigned) [Example K11]",
    "unit-symbol": "nM",
    "Ki": 119
  },
  {
    "compound": "C[C@@H](N[C@@H]1CCC[C@@H]1O)c1nc(C(F)(F)F)cc2c(-c3cccc([C@H](c4nncn4C)C4CCC4)c3)n[nH]c12 (single isomer, unassigned)",
    "unit-symbol": "nM",
    "Ki": 24.5
  },
  {
    "compound": "CC(=O)NC(C)c1nc(C(F)(F)F)cc2c(-c3cccc([C@H](c4nncn4C)C4CCC4)c3)n[nH]c12 (stereo partly drawn) [Example M3]",
    "unit-symbol": "nM",
    "Ki": 214
  },
  {
    "compound": "Cn1cnnc1CC1(c2cccc(-c3n[nH]c4c(CN5CCC(F)(F)C5)nc(C(F)(F)F)cc34)c2)COC1",
    "unit-symbol": "nM",
    "Ki": 113
  }
]

Please look at the following compound next.
Input "Cn1cnnc1CC1(c2cccc(-c3n[nH]c4c(CN[C@H]5CCC(F)(F)C5)nc(C(F)(F)F)cc34)c2)COC1" . Output Ki: 32.9

----------
Target: WT CBL-B (36-427) (Homo sapiens)
Construct: N-terminal biotinylated WT CBL-B (36-427) and C-CBL (46-435) were captured on a streptavidin (SA) coated sensor chip
Experiment: Surface Plasmon Resonance (SPR) assay, binding affinity and kinetics, CBL-B
Details: SPR at 10° C., biotinylated WT CBL-B (36-427) on streptavidin chip; geometric mean; read-out: CBL-B SPR Kd (nM) GMean
Protocol: Surface Plasmon Resonance (SPR) Assay The purpose of the SPR assay is to evaluate the binding affinity and kinetics of the compound of disclosure binding to CBL-B and C-CBL. The binding affinity and kinetics of compound binding to CBL-B and C-CBL were measured by Surface Plasmon Resonance (SPR) using either Biacore S200, 8K or 8K+ (Cytiva, Marlborough, MA) instruments. […] Compound binding kinetics were measured in either multi-cycle or single-cycle kinetic format. […]
Measured Kd accompanies every entry in the list below.

The examples below pair each entry with its known result.
[
  {
    "molecule": "C[C@@H]1CN(Cc2nc(C(F)(F)F)cc3c(-c4cccc([C@H](c5nncn5C)C5CCC5)c4)n[nH]c23)CCO1 [Example C113]",
    "measured-metric": "Kd",
    "result": "4.8 nM"
  },
  {
    "molecule": "C[C@@H](N[C@H]1C[C@@H](F)C1)c1nc(C(F)(F)F)cc2c(-c3cccc([C@H](c4nncn4C)C4CCC4)c3)n[nH]c12 (single isomer, unassigned) [Example C96]",
    "measured-metric": "Kd",
    "result": "3.3 nM"
  },
  {
    "molecule": "C[C@@H](N)c1nc(C(F)(F)F)cc2c(-c3cccc([C@H](c4nncn4C)C4CCC4)c3)n[nH]c12 [Example K13]",
    "measured-metric": "Kd",
    "result": "12.1 nM"
  }
]

Kd for WT CBL-B (36-427) (Homo sapiens) with input C[C@@H]1CN(Cc2nc(C(F)(F)F)cc3c(-c4cccc(C5(Cc6nncn6C)COC5)c4)n[nH]c23)CCO1 [Example C72] equals 2.3 nM

Kd for WT CBL-B (36-427) (Homo sapiens) with input C[C@@H](c1nc(C(F)(F)F)cc2c(-c3cccc(C4(Cc5nncn5C)COC4)c3)n[nH]c12)N1CC(F)(F)C1 (single isomer, unassigned) [Example D45] equals 5.2 nM

Provenance of the data: patent US20260125375A1
